- tested.target: P2Y purinoceptor 1 (Meleagris gallopavo) (UniProt P49652)
- Sequence (P49652 whole entry): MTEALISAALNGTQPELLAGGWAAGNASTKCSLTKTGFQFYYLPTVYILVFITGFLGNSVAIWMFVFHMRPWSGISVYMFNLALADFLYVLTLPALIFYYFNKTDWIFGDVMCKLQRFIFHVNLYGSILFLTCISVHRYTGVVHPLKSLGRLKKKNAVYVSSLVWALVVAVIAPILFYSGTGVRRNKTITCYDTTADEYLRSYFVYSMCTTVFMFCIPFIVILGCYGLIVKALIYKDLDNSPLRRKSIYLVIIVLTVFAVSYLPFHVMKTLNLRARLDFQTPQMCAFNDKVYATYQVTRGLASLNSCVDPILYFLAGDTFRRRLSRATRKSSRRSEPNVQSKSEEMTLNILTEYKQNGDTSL
- protocol: Antagonist activity at turkey P2Y purinoceptor 1 expressed in human 1321N1 cells assessed as inhibition of 2-Sme-ADP-induced increase in intracellular calcium concentration by spectrofluorimetry
- Format: functional, cell-based
The source made the active and inactive calls. No cut-off for these calls is given here.

molecule | Activity
BP(=O)(OC[C@H]1O[C@@H](n2cnc3c(N)ncnc32)[C@H](O)[C@@H]1O)OP(=O)(O)OP(=O)(O)OP(=O)(O)OC[C@H]1O[C@@H](n2cnc3c(N)ncnc32)[C@H](O)[C@@H]1O.CCCCN(CCCC)CCCC.CCCCN(CCCC)CCCC.CCCCN(CCCC)CCCC.CCCCN(CCCC)CCCC (stereo in doubt; 12A) | inactive
BP(=O)(OC[C@H]1O[C@@H](n2ccc(=O)[nH]c2=O)[C@H](O)[C@@H]1O)OP(=O)(O)OP(=O)(O)OC[C@H]1O[C@@H](n2ccc(=O)[nH]c2=O)[C@H](O)[C@@H]1O.CCCCN(CCCC)CCCC.CCCCN(CCCC)CCCC.CCCCN(CCCC)CCCC (stereo in doubt; 11B) | inactive
